As shown below, each of these compounds has a reported Plant response rating, Junglerice value.
# System: junglerice (Echinochloa colona)
# METHOD_SUMMARY: Test E flooded paddy water application
# Format: in vivo
# CONDITION_INFO: Flood, 16 g ai/ha; scale 0 to 100 (0 no effect, 100 complete control); 21 days
Number only, please.

Worked cases, Plant response rating, Junglerice given:
# SUBSTANCE_SMILES, Plant response rating, Junglerice
records = [
    ("COC(=O)c1nc(-c2ccc(C)cc2)nc(N)c1Cl", 0),
    ("COC(=O)c1nc(-c2ccc(Cl)cc2)nc(N)c1Cl", 0),
]

Look up Plant response rating, Junglerice for this compound: CCOC(=O)c1nc(-c2ccc(OC)cc2)nc(N)c1Cl
0

* * *

# System: velvetleaf (Abutilon theophrasti)
# METHOD_SUMMARY: Test C pre/postemergence
# Assay type: in vivo
# CONDITION_INFO: Abutilon theophrasti, pre-emergence, Preemergence, 62 g ai/ha; scale 0 to 100, 0 no effect, 100 complete control; read-out: Plant response rating, Velvetleaf
Reported pest or weed control at 62 g/ha by item:
Quick reminder: number only, in %, skip the unit.

Consider the reported pest or weed control at 62 g/ha for these compounds:
# SUBSTANCE_SMILES, UNIT_NAME, pest or weed control at 62 g/ha
records = [
    ("Nc1nc(C2CC2)nc(C(=O)OCc2ccccc2)c1Cl", "%", 70),
    ("COC(=O)c1nc(C2CC2)nc(N)c1Cl", "%", 95),
    ("CCOC(=O)c1nc(C2CC2)nc(N)c1Br", "%", 80),
]

With those in mind, consider the next compound.
What measured pest or weed control at 62 g/ha goes with Nc1nc(C2CC2)nc(C(=O)O)c1Br ?
65

* * *

plant injury at 1000 g/ha reference
# Tested on: rice (Oryza sativa)
# METHOD_SUMMARY: Test B flooded paddy test
# Format: in vivo
# CONDITION_INFO: Oryza sativa, Flood, 1000 g ai/ha; scale 0 to 100; read-out: Plant response rating, Rice
Please respond with the number in % and leave the unit unwritten.

Could you tell me which plant injury at 1000 g/ha is on file for Nc1nc(C2CC2)nc(C(=O)OCc2ccccc2)c1Br ?
60

Another: CCOC(=O)c1nc(C(C)(C)C)nc(N)c1Br
0

Then this molecule: Nc1nc(C2CC2)nc(C=O)c1Br
70

Try the molecule Nc1nc(C2CC2)nc(CO)c1Br
40

Queued: CCOC(=O)c1nc(C2CC2)nc(N)c1Cl
80

Thanks! And COC(=O)c1nc(C2CC2)nc(N)c1I ?
0

Okay, and COC(=O)c1nc(C2CC2)nc(NO)c1Br ?
0

COC(=O)c1nc(C2CC2)nc(N)c1Cl ?
80

* * *

# System: cocklebur (Xanthium strumarium)
# METHOD_SUMMARY: Test C pre/postemergence
# Format: in vivo
# CONDITION_INFO: Xanthium strumarium, post-emergence, Postemergence, 125 g ai/ha; scale 0 to 100 (0 no effect, 100 complete control); read-out: Cocklebur plant response rating
MEASUREMENT_NAME: pest or weed control at 125 g/ha (%)
Numeric answer only, unit % assumed.

# SUBSTANCE_SMILES, TESTED_ON, TEST_VALUE
measured = [
    ("Nc1nc(C2CC2)nc(C(=O)OCc2ccccc2)c1Cl", "cocklebur (Xanthium strumarium)", 100),
    ("COC(=O)c1nc(C2CC2)nc(N)c1F", "cocklebur (Xanthium strumarium)", 90),
]

Look up pest or weed control at 125 g/ha for this compound: CCOC(=O)c1nc(C2CC2)nc(NN)c1Br
5

Do the same for COC(=O)c1nc(C2CC2)nc(N)c1Br please
85

// repeat for Nc1nc(-c2ccc(Cl)cc2)nc(C(=O)O)c1Cl and report
100
